Biological target: human SGLT2 (Homo sapiens)
Construct: expressed in transfected cells; host or cells: CHO-k1
Sequence (P31639 1-672): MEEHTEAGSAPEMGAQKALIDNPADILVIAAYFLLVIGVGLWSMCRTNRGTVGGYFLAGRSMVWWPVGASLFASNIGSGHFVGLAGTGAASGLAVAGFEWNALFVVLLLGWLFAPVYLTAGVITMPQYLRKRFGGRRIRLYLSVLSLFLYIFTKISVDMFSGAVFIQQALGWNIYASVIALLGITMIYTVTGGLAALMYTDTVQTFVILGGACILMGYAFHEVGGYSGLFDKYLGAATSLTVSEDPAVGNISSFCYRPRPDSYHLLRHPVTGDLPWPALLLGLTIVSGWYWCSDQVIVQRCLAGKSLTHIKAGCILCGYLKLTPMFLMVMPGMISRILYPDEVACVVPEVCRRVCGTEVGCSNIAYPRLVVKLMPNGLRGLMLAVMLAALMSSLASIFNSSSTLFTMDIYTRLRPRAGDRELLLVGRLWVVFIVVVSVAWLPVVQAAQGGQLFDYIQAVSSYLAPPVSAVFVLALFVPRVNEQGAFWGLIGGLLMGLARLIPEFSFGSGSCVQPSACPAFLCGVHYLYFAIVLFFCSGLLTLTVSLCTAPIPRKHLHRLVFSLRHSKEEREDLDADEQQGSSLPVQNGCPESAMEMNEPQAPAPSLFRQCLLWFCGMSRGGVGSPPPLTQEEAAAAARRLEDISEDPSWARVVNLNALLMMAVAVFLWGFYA
Experiment: Inhibition test of sodium-dependent sugar uptake in CHO-k1 cells stably expressing human SGLT2
Format: cell-based
Conditions: sugar uptake inhibition rate at 100 nM test compound vs control group
RECORDED_METRIC: SGLT2 % inhibition at 100 nM (%)

1) Cc1cc(O)c([C@@H]2O[C@H](CO)[C@@H](O)[C@H](O)[C@H]2O)cc1Cc1ccc(CCNC(=O)NCCN2CCCCC2)cc1 = 82
2) Cc1cc(O)c(C2OC(CO)C(O)C(O)C2O)cc1Cc1ccc(CCNC(=O)NC(CO)CC(C)C)cc1 (stereo not drawn) = 91
3) Cc1cc(O)c([C@@H]2O[C@H](CO)[C@@H](O)[C@H](O)[C@H]2O)cc1Cc1ccc(CCNC(=O)NC2C3CC4CC(C3)CC2C4)cc1 (stereo partly drawn) = 87
4) Cc1cc(O)c(C2OC(CO)C(O)C(O)C2O)cc1Cc1ccc(CCNC(=O)N2CCC3CCCCC3C2)cc1 (mixture of isomers) = 80
5) Cc1cc(O)c([C@@H]2O[C@H](CO)[C@@H](O)[C@H](O)[C@H]2O)cc1Cc1ccc(CCNC(=O)NCCc2ccccc2)cc1 = 86
6) Cc1cc(O)c([C@@H]2O[C@H](CO)[C@@H](O)[C@H](O)[C@H]2O)cc1Cc1ccc(CCNC(=O)NC(Cc2ccccc2)C(N)=O)cc1 (stereo partly drawn) = 91

---

target: human SGLT1 (Homo sapiens, UniProt P13866); construct: expressed in transfected cells; host or cells: CHO-k1; experiment: Inhibition test of sodium-dependent sugar uptake in CHO-k1 cells stably expressing human SGLT1; type: cell-based; settings: sugar uptake inhibition rate at 100 nM test compound vs control group
Sequence (P13866 whole entry): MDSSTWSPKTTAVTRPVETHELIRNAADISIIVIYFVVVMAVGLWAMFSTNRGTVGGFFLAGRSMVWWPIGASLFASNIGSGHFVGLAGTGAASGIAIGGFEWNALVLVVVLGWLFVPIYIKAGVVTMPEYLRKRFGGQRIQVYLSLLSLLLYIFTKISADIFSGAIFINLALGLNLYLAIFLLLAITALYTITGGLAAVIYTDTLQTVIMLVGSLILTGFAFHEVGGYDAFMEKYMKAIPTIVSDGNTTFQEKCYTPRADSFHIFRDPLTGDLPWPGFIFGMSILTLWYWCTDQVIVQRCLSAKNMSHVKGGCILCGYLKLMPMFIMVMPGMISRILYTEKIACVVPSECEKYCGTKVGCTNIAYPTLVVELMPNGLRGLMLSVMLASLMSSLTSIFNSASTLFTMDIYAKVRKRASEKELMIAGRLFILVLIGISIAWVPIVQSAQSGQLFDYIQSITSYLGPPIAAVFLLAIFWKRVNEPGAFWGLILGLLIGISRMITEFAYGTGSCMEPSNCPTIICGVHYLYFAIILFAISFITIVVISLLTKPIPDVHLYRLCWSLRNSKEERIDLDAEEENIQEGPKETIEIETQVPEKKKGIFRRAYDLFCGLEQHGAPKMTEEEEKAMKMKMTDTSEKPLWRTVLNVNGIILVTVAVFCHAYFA
RECORDED_METRIC: SGLT1 % inhibition at 100 nM (%)

Solved entries (count: 3):
1. Cc1cc(O)c([C@@H]2O[C@H](CO)[C@@H](O)[C@H](O)[C@H]2O)cc1Cc1ccc(CCNC(=O)NCc2cc3ccccc3s2)cc1 [Compound 61] = 65
2. Cc1cc(O)c([C@@H]2O[C@H](CO)[C@@H](O)[C@H](O)[C@H]2O)cc1Cc1ccc(CCNC(=O)NC2Cc3ccccc3C2)cc1 [Compound 138] = 65
3. Cc1cc(O)c([C@@H]2O[C@H](CO)[C@@H](O)[C@H](O)[C@H]2O)cc1Cc1ccc(CCNC(=O)NCC(O)COc2ccccc2)cc1 (stereo partly drawn) [Compound 66] = 62

I = Cc1cc(O)c([C@@H]2O[C@H](CO)[C@@H](O)[C@H](O)[C@H]2O)cc1Cc1ccc(CCNC(=O)NCCc2ccccc2)cc1 [Compound 71]
II = CCC(CO)(CO)NC(=O)NCCc1ccc(Cc2cc([C@@H]3O[C@H](CO)[C@@H](O)[C@H](O)[C@H]3O)c(O)cc2C)cc1 [Compound 38]
Identify the item whose SGLT1 % inhibition at 100 nM is the smaller number: I or II Answer by stating the label of the chosen item.
I

---

Target: human SGLT2 (Homo sapiens, UniProt P31639)
Sequence (P31639 1-672): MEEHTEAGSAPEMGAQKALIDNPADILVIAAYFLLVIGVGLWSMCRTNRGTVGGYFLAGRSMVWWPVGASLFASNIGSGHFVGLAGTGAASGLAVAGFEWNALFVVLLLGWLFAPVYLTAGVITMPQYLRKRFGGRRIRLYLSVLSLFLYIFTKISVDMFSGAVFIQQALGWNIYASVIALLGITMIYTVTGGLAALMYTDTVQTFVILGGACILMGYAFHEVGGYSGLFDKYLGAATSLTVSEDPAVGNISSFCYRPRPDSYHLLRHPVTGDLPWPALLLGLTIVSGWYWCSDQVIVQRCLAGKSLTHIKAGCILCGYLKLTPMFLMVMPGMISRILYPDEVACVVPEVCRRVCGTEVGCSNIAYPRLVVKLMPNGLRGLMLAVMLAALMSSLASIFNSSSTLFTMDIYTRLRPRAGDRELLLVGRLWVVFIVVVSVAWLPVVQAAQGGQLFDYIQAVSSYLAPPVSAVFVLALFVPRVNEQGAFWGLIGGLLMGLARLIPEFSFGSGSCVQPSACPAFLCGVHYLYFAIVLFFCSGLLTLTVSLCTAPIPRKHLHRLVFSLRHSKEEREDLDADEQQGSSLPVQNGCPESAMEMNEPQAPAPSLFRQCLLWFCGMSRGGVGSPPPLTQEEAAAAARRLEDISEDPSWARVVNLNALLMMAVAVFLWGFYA
Experiment: Inhibition test of sodium-dependent sugar uptake in CHO-k1 cells stably expressing human SGLT2
Conditions: CHO-k1 cells expressing human SGLT2; [14C]methyl α-D-glucopyranoside uptake, 37° C., an hour
pIC50: −log10 of the molar value.
RECORDED_METRIC: pIC50

Solved entries (count: 3):
1) Cc1cc(O)c([C@@H]2O[C@H](CO)[C@@H](O)[C@H](O)[C@H]2O)cc1Cc1ccc(CCNC(=O)NC2(CO)CCCC2)cc1 = 7.72
2) COCCNC(=O)NCCc1ccc(Cc2cc([C@@H]3O[C@H](CO)[C@@H](O)[C@H](O)[C@H]3O)c(O)cc2C)cc1 = 7.41
3) Cc1cc(O)c([C@@H]2O[C@H](CO)[C@@H](O)[C@H](O)[C@H]2O)cc1Cc1ccc(CCNC(=O)NC(CO)(CO)CO)cc1 = 7.47

1 = O=C(NCCc1ccc(Cc2cc([C@@H]3O[C@H](CO)[C@@H](O)[C@H](O)[C@H]3O)ccc2Cl)cc1)NC(CO)(CO)CO
2 = Cc1cc(O)c([C@@H]2O[C@H](CO)[C@@H](O)[C@H](O)[C@H]2O)cc1Cc1ccc(CCNC(=O)NC(C)(C)C(=O)N2CCN(C)CC2)cc1
3 = Cc1cc(O)c([C@@H]2O[C@H](CO)[C@@H](O)[C@H](O)[C@H]2O)cc1Cc1ccc(CCNC(=O)NCc2cc(Cl)cc(Cl)c2)cc1
Your job: order these 3 records by pIC50, ascending. To answer, arrange all of the labels according to the requested order.
2, 1, 3

---

molecular target: human SGLT2 (Homo sapiens, UniProt P31639); construct: expressed in transfected cells; host or cells: CHO-k1; assay: Inhibition test of sodium-dependent sugar uptake in CHO-k1 cells stably expressing human SGLT2; format: cell-based; conditions: sugar uptake inhibition rate at 100 nM test compound vs control group
RECORDED_METRIC: SGLT2 % inhibition at 100 nM (%)

1) Cc1cc(O)c([C@@H]2O[C@H](CO)[C@@H](O)[C@H](O)[C@H]2O)cc1Cc1ccc(CCNC(=O)NCCc2ccc(F)cc2)cc1 = 84
2) Cc1cc(O)c([C@@H]2O[C@H](CO)[C@@H](O)[C@H](O)[C@H]2O)cc1Cc1ccc(CCNC(=O)NC2CCCC2)cc1 = 90
3) Cc1cc(O)c([C@@H]2O[C@H](CO)[C@@H](O)[C@H](O)[C@H]2O)cc1Cc1ccc(CCNC(=O)NCc2ccccc2)cc1 = 83
4) COc1ccc(CCNC(=O)NCCc2ccc(Cc3cc([C@@H]4O[C@H](CO)[C@@H](O)[C@H](O)[C@H]4O)c(O)cc3C)cc2)cc1OC = 69
5) Cc1cc(O)c(C2OC(CO)C(O)C(O)C2O)cc1Cc1ccc(CCNC(=O)NC2CCN(Cc3ccccc3)C2)cc1 (mixture of isomers) = 90
6) Cc1cc(O)c([C@@H]2O[C@H](CO)[C@@H](O)[C@H](O)[C@H]2O)cc1Cc1ccc(CCNC(=O)NCC(c2ccccc2)c2ccccc2)cc1 = 74
